# Test system: NCI-H226 lung
# Experiment: NCI tumour cell line growth inhibition, 48 h; in the data active means GI50 below about 0.43 µM; inactive means the rest
Labels: 1 (yes) (active), 0 (no) (inactive)

Compound	Group
O=c1[nH]ccc2nc(N3CCC(O)CC3)nc(Nc3ccc(N4CCOCC4)cc3)c12	0 (no)
CCCCCCCC(=O)SCC/C=C/[C@@H]1CC(=O)NCc2cccc(n2)C2=N[C@@](C)(CS2)C(=O)N[C@@H](C(C)C)C(=O)O1	1 (yes)
COc1ccc(Nc2[nH]n(C3=Nc4ccccc4Sc4ccccc43)c(=O)c2C#N)cc1	0 (no)
C/C(=N\NC(=O)c1cccc(S(=O)(=O)N2CCN(C)CC2)c1)c1cc(Cl)ccc1O	0 (no)
Cc1cc(C)nc(NS(=O)(=O)c2ccc(Nc3nc4nc(NCc5ccccc5)nc(-c5ccc(O)cc5)c4c(=O)[nH]3)cc2)n1	0 (no)
O=C(NCCN1CCOCC1)Nc1nc2ccc(Sc3nnc4ccc(-c5ccc(F)cc5)nn34)cc2s1	0 (no)
COc1ccc(C2CC(c3ccc4ccccc4c3)=NN2/C=C2\SC(=S)N(NC(=O)Cc3ccccc3Nc3c(Cl)cccc3Cl)C2=O)cc1 (stereo unspecified)	0 (no)
COc1ccc(/C=C(/C(=O)N2CCN(c3ccc(C)cc3)CC2)c2cc(OC)c(OC)c(OC)c2)cc1N	1 (yes)
CCN(CC)c1ccc(CNc2cc(C)nc3ccc(OC)cc23)cc1	0 (no)
OCCNC(=S)Nc1ccc(-c2nc(N3C[C@H]4CC[C@@H](C3)O4)c3cccn3n2)cc1	1 (yes)
Oc1ccccc1/C=N/Nc1nc2ccccc2s1	0 (no)
Cc1c(C)n(CC(O)CNC2CCCCC2C)c2ccccc12 (stereo unspecified)	0 (no)
O=C(/C=C/c1ccccc1)Nc1ncc(Cc2ccccc2)s1	0 (no)
Cc1ccccc1NC(=O)N/C(N)=N/c1nc(C)c(C)s1	0 (no)
C=CC1CC12C(=O)C1OC2(C)C2C(=O)c3c(O)cccc3C(=O)C12 (stereo unspecified)	0 (no)
Cc1cc(NCCCNc2ccnc3cc(Cl)ccc23)nc(Nc2ccc(C(=O)N3CCCCC3)cc2)n1	0 (no)

###

# Tested on: U251 CNS
Classes used: active, inactive

Sample smiles	Group
COc1ccc(NC(=O)COc2ccccc2)c(C(N)=O)c1	inactive
CS(=O)(=O)OCCCCOS(C)(=O)=O	inactive
COc1ccc2c(c1)C(=O)c1c-2n(CCCCl)c(=O)c2cc([N+](=O)[O-])ccc12	active
COc1ccc2nc(-c3ccc(Cl)cc3)cc(-c3nnc(SCC(=O)Nc4ccc(/C(C)=N\O)cc4)o3)c2c1	inactive
Cc1cc(NCCCNc2ccnc3cc(Cl)ccc23)nc(Nc2ccc(C(=O)N3CCCCC3)cc2)n1	inactive
CC[C@@]1(O)C(=O)OCc2c1cc1n(c2=O)Cc2cc3c([N+](=O)[O-])c(O)ccc3nc2-1	active
O=C1C2=C(C(=O)c3c(O)ccc(O)c31)N(c1cccnc1)Cc1ccccc1O2	inactive
Nc1nc2ccccc2c2[nH]c3ccccc3c12	inactive
CCCCCCCC(=O)SCC/C=C/[C@@H]1CC(=O)NCc2cccc(n2)C2=N[C@@](C)(CS2)C(=O)N[C@@H](C(C)C)C(=O)O1	active

###

# Tested on: UACC-257 melanoma
# Experiment: NCI tumour cell line growth inhibition, 48 h
// values below are reported TGI
Quantity measured: TGI

Compound	Quantity measured	Result
COC(=O)c1c(O)ccc2c1c1cc3ccccc3c(O)c1n2Cc1ccccc1Cl	TGI	> 100 µM
COc1ccc(/C=C(/C(=O)N2CCN(c3ccc(C)cc3)CC2)c2cc(OC)c(OC)c(OC)c2)cc1N	TGI	> 100 µM
CSc1ccc(/C=C/C(=O)c2nc3ccccc3[nH]2)cc1	TGI	67.1 µM
COc1ccc(OC)c2sc(N3C(=O)/C(=C/c4ccc(SC)cc4)N=C3c3ccccc3)nc12	TGI	> 100 µM
CCOC(=O)NC(=O)c1cn(CC(=O)NCC(=O)NCC(=O)N2CCN(CCn3c(C)nc(C(N)=O)c3N)CC2)c(=O)[nH]c1=O	TGI	> 100 µM
Clc1ccc(/C=c2\nc(-c3ccccc3)n3c2nc2ccccc23)cc1	TGI	> 100 µM
O=C(/C=C/c1ccc[nH]1)c1ccccc1	TGI	> 100 µM
Nc1c(C(=O)c2cccc(C(O)(CO)CO)c2)cnn1-c1ccc(F)cc1	TGI	> 25 µM
Cc1c(C)n(CC(O)CNC2CCCCC2C)c2ccccc12 (centres undefined)	TGI	31 µM
O=C1CCN=C(NC(=O)C(F)(F)F)N1CCc1c[nH]c2ccccc12	TGI	> 100 µM
CCOc1ccccc1NC(=O)CSc1nnc(Cc2ccccc2)o1	TGI	98.6 µM
[N-]=[N+]=CC(=O)OC1CCc2ccccc21 (centres undefined)	TGI	> 100 µM
NNC(=O)C(O)C(O)C(O)CO (centres undefined)	TGI	> 100 µM
CC[C@]12C=CCN3CC[C@@]4(c5ccc(OC)cc5N(C)[C@H]4[C@@](O)(C(=O)OC)[C@@H]1OC(=O)CCCC[P+](c1ccccc1)(c1ccccc1)c1ccccc1)[C@@H]32	TGI	1.09 µM
O=C(Nc1ccc(-n2ccc3c(NC(=O)c4ccccc4)ncnc32)cc1)Nc1ccc(Cl)c(C(F)(F)F)c1	TGI	6.39 µM
CS(=O)(=O)c1nccc(-c2c(-c3cccc(OCc4ccccc4)c3)nc3sccn23)n1	TGI	32.5 µM
CCOc1cc(/C=N\O)cc(/C=N/O)c1O	TGI	> 100 µM
COc1ccc(NC(=O)COc2ccccc2)c(C(N)=O)c1	TGI	> 100 µM
c1cc2c(cc1NC1=NCCO1)CCCC2	TGI	> 28.1 µM

###

# Tested on: HOP-92 NSCLC
# Experiment: NCI tumour cell line growth inhibition, 48 h

Sample smiles	GI50
N=C(N)c1ccc(CS(=O)(=O)F)cc1	> 100000 nM
COc1ccc(NC(=O)COc2ccccc2)c(C(N)=O)c1	2870 nM
CC/C=C\C[C@H](O)C/C=C1/C(=O)C=C[C@@H]1C/C=C\CCCC(=O)OCCS(=O)(=O)c1ccccc1	6870 nM
CCCCCCCC(=O)SCC/C=C/[C@@H]1CC(=O)NCc2cccc(n2)C2=N[C@@](C)(CS2)C(=O)N[C@@H](C(C)C)C(=O)O1	84.1 nM
C=C(c1ccc(OC)c(/C=C/C(=O)c2cc(OC)c(OC)c(OC)c2)c1)c1cc(OC)c(OC)c(OC)c1	1140 nM
COc1ccc(-c2c(-c3cc4c(c(OC)c3OC)OCO4)noc2N)cc1	679 nM
O=C(NCCN1CCOCC1)Nc1nc2ccc(Sc3nnc4ccc(-c5ccc(F)cc5)nn34)cc2s1	3320 nM
CC[C@]12C=CCN3CC[C@@]4(c5ccc(OC)cc5N(C)[C@H]4[C@@](O)(C(=O)OC)[C@@H]1OC(=O)CCCC[P+](c1ccccc1)(c1ccccc1)c1ccccc1)[C@@H]32	238 nM
O=C(/C=C/c1ccccc1)Nc1ncc(Cc2ccccc2)s1	4720 nM
CS(=O)(=O)c1nccc(-c2c(-c3cccc(OCc4ccccc4)c3)nc3sccn23)n1	6380 nM
CN(Cc1ccccc1)c1ncnc2ccc(Br)cc12	7160 nM
C[C@@]1([C@H](OC(=O)c2cccc3ccccc23)C(N)=O)CO1	2810 nM
CC[C@@]1(O)C(=O)OCc2c1cc1n(c2=O)Cc2cc3c([N+](=O)[O-])c(O)ccc3nc2-1	1260 nM
Oc1ccccc1/C=N/Nc1nc2ccccc2s1	740 nM

###

# Test system: OVCAR-4 ovarian
# Experiment: NCI tumour cell line growth inhibition, 48 h; in the data active = GI50 below about 0.43 µM; inactive = the rest
Possible outcomes: active, inactive

Molecule	Group
Nc1nc2ccccc2c2[nH]c3ccccc3c12	inactive
O=C(Nc1ccc(-n2ccc3c(NC(=O)c4ccccc4)ncnc32)cc1)Nc1ccc(Cl)c(C(F)(F)F)c1	inactive
COc1ccc(Nc2[nH]n(C3=Nc4ccccc4Sc4ccccc43)c(=O)c2C#N)cc1	inactive
CC/C=C\C[C@H](O)C/C=C1/C(=O)C=C[C@@H]1C/C=C\CCCC(=O)OCCS(=O)(=O)c1ccccc1	inactive
C/C(=N\NC(=O)c1cccc(S(=O)(=O)N2CCN(C)CC2)c1)c1cc(Cl)ccc1O	inactive
CS(=O)(=O)OCCCCOS(C)(=O)=O	inactive
Cc1cc(N2CCCCC2)nc(NCc2cc(Nc3ccnc4cc(Cl)ccc34)ccc2F)n1	inactive
CCCCCCCC(=O)SCC/C=C/[C@@H]1CC(=O)NCc2cccc(n2)C2=N[C@@](C)(CS2)C(=O)N[C@@H](C(C)C)C(=O)O1	active
Cc1c(C)n(CC(O)CNC2CCCCC2C)c2ccccc12 (centres undefined)	inactive

###

# System: LOX IMVI melanoma
# Experiment: NCI tumour cell line growth inhibition, 48 h
// values below are reported TGI

Molecule	TGI
COc1cc(-c2nn(-c3ccc(NC(=O)Nc4ccc(Cl)c(C(F)(F)F)c4)cc3)cc2-c2ccncc2)ccc1Cl	2.78 µM
Cc1ccc(C(=O)Nc2ccc(CN3CCN(C)CC3)c(C(F)(F)F)c2)cc1C#Cc1cnc(N)c2ccc(C#N)cc12	6.79 µM
CCOC(=O)C1Nc2ccc([N+](=O)[O-])cc2[C@H]2OCC[C@@H]12 (some centres not stated)	> 100 µM
C=C(c1ccccc1)[C@@]1(O)CCCC[C@H]1NC(c1ccccc1)c1ccccc1	21.9 µM
CCCCCCCCCCCCCCCCCc1cc(Cl)nc(Cl)n1	> 100 µM
CC(=O)O[C@H]1CC[C@@]2(C)C(=CC[C@@H]3C2CC[C@]2(C)C(=O)NC(=O)CC32)C1 (some centres not stated)	> 100 µM
CC(=O)N(C(=O)CC(=O)NNCc1ccccc1Cl)c1ccc(Cl)cc1	> 10 µM
Cc1cc(C)c(-n2c(C)c(C)c(C#N)c2N)c(C)c1	40.8 µM
CCc1cc(C)cc2[n+]1CC=C2C	> 100 µM
Cc1ccc([N+]2=NC(c3ccc([N+](=O)[O-])cc3)=NN(c3ccccc3)C2)cc1	> 100 µM
C/C(=N\NC(=O)C[n+]1ccccc1)c1sc(-c2nc(C)c(/C(C)=N/NC(=O)C[n+]3ccccc3)s2)nc1C	> 100 µM
C=CCNC(=O)ON1C(=O)CCC1=O	> 100 µM
Clc1cc2nc[nH]c2cc1Cl	> 100 µM
CC(/C=C/c1ccccc1)=N\N=C(C)\C=C\c1ccccc1	> 100 µM
Cc1cc(N2CCCCC2)nc(NCc2cc(Nc3ccnc4cc(Cl)ccc34)ccc2F)n1	3.29 µM
O=S(Nc1ccccc1)c1ccccc1Oc1ccccc1 (configuration not stated)	> 100 µM
Nc1ccc([As](=O)(O)O)cc1	> 100 µM
COc1ccc(NC(=O)COc2ccccc2)c(C(N)=O)c1	> 100 µM
COc1cccc(-c2cc(=O)c3cc(C)c(C)c(C(=O)O)c3o2)c1	> 100 µM
CC(C)C(C)C(O)C(O)C(C)C1CCC2C3COC(=O)C4CC(O)C(O)CC4(C)C3CCC12C (configuration not stated)	> 100 µM
CC(=O)CC(=O)ON(C)C(C)=O	> 100 µM
Cc1nnc(N2C(=O)C(=Cc3ccc(Cl)cc3)N=C2c2ccc(Cl)cc2)nc1/C=C\c1ccc(N(C)C)cc1	> 100 µM
